- Assayed System: T1, MT1-MMP hemopexin domain (UniProt P50281 319-511)
- T1 construct: domain: hemopexin domain; also called hemopexin of MT1-MMP; membrane type 1 metalloprotease
- Assay Text: fluorescence polarization (anisotropy) assay on MT1-MMP hemopexin domain; grade D = Ki >1,000 nM
pKi: −log10 of the molar value. Bridge positions count the residues as written; N and C are the ends. Square brackets hold non-standard residues; d marks the D form. Ends that are not written are not given here. Intermediate I = 1,4,7-tris(vinylsulfonyl)-1,4,7-triazonane; 1Nal = N[C@@H](Cc1cccc2ccccc12)C(=O)O; Tle = CC(C)(C)[C@H](N)C(=O)O
Experimental Readout: pKi

Ask | Give pKi for the following binder: AC[dA]NE[1Nal][dA]CEDFYD[Tle]C (linker 2-8-15 via Intermediate I, also called peptide 4 cyclised with Intermediate I) [I-59]
Reply | < 6.00
